Tested on: Staphylococcus sp.
Assay: In vitro antibacterial evaluation: minimum inhibitory concentration (MIC), broth dilution method
Assay type: cell-based
Details: Coagulase Negative Staphylococcus (GC 6257); 18 hours at 35° C.
Numbered stars: 1 amine (or outer) side, 2 acyl side, 3 side chain; on linkers, the order of the positions; unused ones are H or OH. Square brackets hold non-standard residues; d marks the D form. Peptide text beside a SMILES is read from it. ξ: configuration not given here. X1 = N=C1NCC(C(O)C(N[*:1])C(=O)[*:2])N1C1OC(CO)C(O)C(O)C1O; ξEnduracididine(βξ-OH,4'ξ) = N=C1NCC(C(O)C(N)C(=O)O)N1
Listed below: MIC Coagulase Negative Staphylococcus (GC 6257) values for each entry.
readout_label: MIC Coagulase Negative Staphylococcus (GC 6257) (µg/mL)

compound	quantitative_result
CC(c1ccccc1)C1NC(=O)CNC(=O)C(CO)NC(=O)C(C(O)C2CNC(=N)N2C2OC(CO)C(O)C(O)C2O)NC(=O)C(C(O)C2CNC(=N)N2)NC(=O)C(Cc2ccc(OC3OC(CO)C(OC4OC(CO)C(OCC=Cc5ccc(N(C)C)cc5)C(O)C4O)C(O)C3O)cc2)NC1=O (stereo not shown) [Example 243a]	16
COc1ccc2cc(COCC3OC(OC4C(CO)OC(Oc5ccc(CC6NC(=O)C(C(C)c7ccccc7)NC(=O)CNC(=O)C(CO)NC(=O)C(C(O)C7CNC(=N)N7C7OC(CO)C(O)C(O)C7O)NC(=O)C(C(O)C7CNC(=N)N7)NC6=O)cc5)C(O)C4O)C(O)C(O)C3O)ccc2c1 (stereo not shown) [Example 230]	0.5
CC(c1ccccc1)C1NC(=O)CNC(=O)C(CO)NC(=O)C(CC2CNC(=N)N2C2OC(CO)C(O)C(O)C2O)NC(=O)C(CC2CNC(=N)N2)NC(=O)C(Cc2ccc(OC3OC(CO)C(OC4OC(COCc5ccc(OCc6ccccc6)cc5)C(O)C(O)C4O)C(O)C3O)cc2)NC1=O (stereo not shown) [Example 246]	2
CCOc1cc(COCC2OC(OC3C(CO)OC(Oc4ccc(CC5NC(=O)C(C(C)c6ccccc6)NC(=O)CNC(=O)C(CO)NC(=O)C(C(O)C6CNC(=N)N6C6OC(CO)C(O)C(O)C6O)NC(=O)C(C(O)C6CNC(=N)N6)NC5=O)cc4)C(O)C3O)C(O)C(O)C2O)ccc1OC (stereo not shown) [Example 238]	1
CC(c1ccccc1)C1NC(=O)CNC(=O)C(CO[Si](C)(C)C(C)(C)C)NC(=O)C(C(O)C2CNC(=N)N2C2OC3COC(C)(C)OC3C3OC(C)(C)OC32)NC(=O)C(C(O)C2CNC(=N)N2)NC(=O)C(Cc2ccc(O)cc2)NC1=O (stereo not shown) [Example 248]	16
N=C1NCC(C(O)C2NC(=O)C(Cc3ccc(O)cc3)NC(=O)C(Cc3ccccc3)NC(=O)CNC(=O)C(CO)NC(=O)C(C(O)C3CNC(=N)N3C3OC(CO)C(O)C(O)C3O)NC2=O)N1 (stereo not drawn) [Example 279a] (cyclo(GFY[ξEnduracididine(βξ-OH,4'ξ)][X1]S); configuration not given here)	64
COc1ccc2cc(COC3C(OC4C(CO)OC(Oc5ccc(CC6NC(=O)C(C(C)c7ccccc7)NC(=O)CNC(=O)C(CO)NC(=O)C(C(O)C7CNC(=N)N7C7OC(CO)C(O)C(O)C7O)NC(=O)C(C(O)C7CNC(=N)N7)NC6=O)cc5)C(O)C4O)OC(CO)C(O)C3O)ccc2c1 (stereo not shown) [Example 230c]	32
